Reference for the values: PubChem BioAssay

- System: XIP peptide (Xip251-270)
- assay remarks: compounds binding XIP fragment 251-270 – biochemical, small-molecule microarray, fluorescence 635/667 nm, 0.5 µg/mL protein, primary screen (AID 1183)
- assay conditions: fluorescence 635 nm, higher = more signal
measurement label: composite z-score

>>> quantitative_result("COc1ccc(C(=O)Nc2cccc(CN3C(=O)[C@]4(O[C@H](CC(=O)N5Cc6ccccc6C[C@H]5CO)[C@@H]([Si](C)(C)c5ccc(OC)cc5)[C@@H]4C)c4ccccc43)c2)cc1")
0.697
>>> quantitative_result("CCOC(=O)C[C@H]1[C@H](OC(=O)Cc2ccc3c(c2)OCO3)[C@@H](NC(=O)c2ccc3ccccc3n2)c2cc(OCCCO)ccc2N1C(=O)Cc1ccc(OC)cc1")
0.401
>>> quantitative_result("COCCn1c(C(=O)N(C)C)cc2c1C[C@H]1CN(C(=O)c3ccccc3)[C@@](Cc3ccc(OC)cc3)(C(=O)OC)[C@@H]21")
0.435
>>> quantitative_result("CCOc1cc(C(O)C2C=CC3C(=O)N(c4ccccc4)C(=O)C3N2Nc2ccccc2F)ccc1O (configuration not stated)")
-0.213
>>> quantitative_result("CC(C)(C)N1CC=CC23O[C@@H]4/C=C\\CCCOC(=O)C4[C@H]2C(=O)N(CCCCCO)[C@@H]3C1=O (some centres not stated)")
-1.03
>>> quantitative_result("[N-]=[N+]=NCc1ccccc1[C@@H]1OC(c2ccc(OCCCO)cc2)=N[C@]1(Cc1ccccc1N=[N+]=[N-])C(=O)NCC(O)CO (some centres not stated)")
0.5
>>> quantitative_result("CCCC=C(CCC)[C@@H](NC(=O)OCC(C)C)c1ccc(C(=O)OC)cc1")
0.279
